We begin with a simple list: items and their reported pIC50.
# Tested on: NCI-H1618;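 note: growth inhibition of human NCI-H1618 cells, measured by a cell viability assay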
# Protocol Details: cells
# Format: functional, cell-based
# Recorded Conditions: Homo sapiens
# Description: SANGER: Inhibition of human NCI-H1618 cell growth in a cell viability assay.
pIC50: −log10 of the molar value.

Smiles Data	pIC50
C=CCc1cccc(/C=N/NC(=O)CN2CCN(Cc3ccccc3)CC2)c1O	< 5.59
CCC1=C[C@@H]2CN(C1)Cc1c([nH]c3ccccc13)[C@@](C(=O)OC)(c1cc3c(cc1OC)N(C)[C@H]1[C@@](O)(C(=O)OC)[C@H](OC(C)=O)[C@]4(CC)C=CCN5CC[C@]31[C@@H]54)C2	< 7.19
Cn1cncc1[C@@](N)(c1ccc(Cl)cc1)c1ccc2c(c1)c(-c1cccc(Cl)c1)cc(=O)n2C	< 4.80
Cc1cnc(-c2cnc(NCCNc3ccc(C#N)cn3)nc2-c2ccc(Cl)cc2Cl)[nH]1	< 5.59
